Molecular target: Neu5Ac(a2-8)Neu5Ac(a2-8)Neu5Ac
Test: glycan array binding signal (z-score within array); higher = stronger binding
Details: glycan notation: IUPAC condensed, linker removed
This is one part of a sample in which the strongest signals are shown more often than they occur.
readout: glycan array binding signal (z-score)

• F17aG (Escherichia coli), Q99003 (protein) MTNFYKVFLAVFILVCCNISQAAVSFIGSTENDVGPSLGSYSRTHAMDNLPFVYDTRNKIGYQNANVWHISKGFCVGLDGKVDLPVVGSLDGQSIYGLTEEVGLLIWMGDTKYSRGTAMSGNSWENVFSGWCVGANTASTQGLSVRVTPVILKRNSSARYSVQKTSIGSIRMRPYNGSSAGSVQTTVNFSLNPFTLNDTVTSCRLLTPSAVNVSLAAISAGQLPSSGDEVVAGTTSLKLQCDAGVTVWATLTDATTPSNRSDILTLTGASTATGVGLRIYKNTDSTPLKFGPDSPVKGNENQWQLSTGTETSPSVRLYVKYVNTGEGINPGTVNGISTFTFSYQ = -0.234
• Epf (Streptococcus pyogenes) (protein) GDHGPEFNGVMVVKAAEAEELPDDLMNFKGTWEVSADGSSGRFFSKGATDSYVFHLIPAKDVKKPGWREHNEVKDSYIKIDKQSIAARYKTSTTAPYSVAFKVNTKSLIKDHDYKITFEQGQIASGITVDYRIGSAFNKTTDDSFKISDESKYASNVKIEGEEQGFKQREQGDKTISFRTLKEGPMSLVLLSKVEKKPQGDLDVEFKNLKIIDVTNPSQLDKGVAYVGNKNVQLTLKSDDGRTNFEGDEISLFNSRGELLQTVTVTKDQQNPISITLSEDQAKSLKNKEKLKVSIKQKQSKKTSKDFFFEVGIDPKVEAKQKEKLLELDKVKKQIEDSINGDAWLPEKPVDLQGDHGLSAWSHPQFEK = -0.377
• AFL5 (Aspergillus fumigatus), Q4WB00 (protein) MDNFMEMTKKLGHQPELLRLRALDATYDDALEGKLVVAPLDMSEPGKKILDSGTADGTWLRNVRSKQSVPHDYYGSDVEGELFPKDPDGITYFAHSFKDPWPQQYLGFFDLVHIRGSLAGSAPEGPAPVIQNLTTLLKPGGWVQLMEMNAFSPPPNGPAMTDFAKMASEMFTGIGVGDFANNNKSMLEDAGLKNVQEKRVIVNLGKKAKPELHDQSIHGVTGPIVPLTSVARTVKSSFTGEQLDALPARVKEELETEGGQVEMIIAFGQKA = 0.079
• FaeGad (Escherichia coli) (protein) WMTGDFNGSVDIGGSITADDYRQKWEWEVGTGLNGFGSVLNDLTNGGTKLTITVTGNKPILLGRTKEAFATPVTSGVDGIPHIAFTDYEGASVELRNPDGETEKGLTYFVLPMKNAEGTKVGSVKVNASYAGALGRGGVTSADGELMSLFAEGSHAIFYGGLPTNVKNSELKGGSAAAARTELFGSLSKNDILGQIQRVNANITSLVNVPGSFNENMAYTDGSVVSVAYALGIANGQTIEATFNQAVTTSTQWSAPLNVAITYY = -0.377
